Please respond with reported inhibition at 1 µM for every item in the list.
system: IL-6; experiment: IL-6 expression in LPS stimulated PBMCs (Meso Scale); assay type: cell-based, human; conditions: Homo sapiens, PBMC; compound concentration 1 μM; LPS-stimulated PBMCs
Write the answer as a number in %, unit excluded.

stdin: Item `Cc1c(Cl)cc(NC(=O)NCc2scc3c2CN([C@H]2CCCC(=O)NC2=O)C3=O)cc1C(C)C` has what recorded inhibition at 1 µM?
stdout: 88

stdin: Now the compound `Cc1ccc(NC(=O)NCc2scc3c2CN([C@H]2CCCC(=O)NC2=O)C3=O)cc1Cl`
stdout: 98

stdin: Now the compound `Cc1ccc(CNC(=O)NCc2cc3c(s2)C(=O)N([C@H]2CCCC(=O)NC2=O)C3)cc1Cl`
stdout: 0
